// values below are reported Kd
SYSTEM_TESTED: EUR_21010 (Agathobacter rectalis)
Sequence (C4ZGN9 26-464): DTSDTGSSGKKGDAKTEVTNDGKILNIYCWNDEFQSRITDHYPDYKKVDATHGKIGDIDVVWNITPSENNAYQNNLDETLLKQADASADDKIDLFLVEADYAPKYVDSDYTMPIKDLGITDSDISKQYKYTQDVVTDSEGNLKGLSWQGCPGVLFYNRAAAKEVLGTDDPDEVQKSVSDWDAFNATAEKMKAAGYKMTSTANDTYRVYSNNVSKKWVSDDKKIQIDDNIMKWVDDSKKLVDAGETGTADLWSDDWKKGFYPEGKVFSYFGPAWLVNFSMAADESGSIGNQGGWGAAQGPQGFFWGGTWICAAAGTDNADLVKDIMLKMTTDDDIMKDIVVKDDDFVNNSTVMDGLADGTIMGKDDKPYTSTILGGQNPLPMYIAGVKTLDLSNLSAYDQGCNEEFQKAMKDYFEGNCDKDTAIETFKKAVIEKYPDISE
PROPERTY_MEASURED: Kd (nM)

[
  {
    "COMPOUND": "OC[C@H]1O[C@@H](O[C@H]2[C@H](O)[C@@H](O)[C@H](O[C@H]3[C@H](O)[C@@H](O)[C@H](O[C@H]4[C@H](O)[C@@H](O)C(O)O[C@@H]4CO)O[C@@H]3CO)O[C@@H]2CO)[C@H](O)[C@@H](O)[C@@H]1O (some centres unmarked) [cellotetraose]",
    "PROPERTY_MEASURED": "Kd",
    "READOUT_NUMBER": 3010
  },
  {
    "COMPOUND": "OC[C@H]1O[C@@H](O[C@H]2[C@H](O)[C@@H](O)C(O)O[C@@H]2CO)[C@H](O)[C@@H](O)[C@@H]1O (some centres unmarked) [cellobiose]",
    "PROPERTY_MEASURED": "Kd",
    "READOUT_NUMBER": 542
  }
]

---

SYSTEM_TESTED: EUR_01830 (Agathobacter rectalis, UniProt A0ABF7PGY2)
Sequence (A0ABF7PGY2 24-422): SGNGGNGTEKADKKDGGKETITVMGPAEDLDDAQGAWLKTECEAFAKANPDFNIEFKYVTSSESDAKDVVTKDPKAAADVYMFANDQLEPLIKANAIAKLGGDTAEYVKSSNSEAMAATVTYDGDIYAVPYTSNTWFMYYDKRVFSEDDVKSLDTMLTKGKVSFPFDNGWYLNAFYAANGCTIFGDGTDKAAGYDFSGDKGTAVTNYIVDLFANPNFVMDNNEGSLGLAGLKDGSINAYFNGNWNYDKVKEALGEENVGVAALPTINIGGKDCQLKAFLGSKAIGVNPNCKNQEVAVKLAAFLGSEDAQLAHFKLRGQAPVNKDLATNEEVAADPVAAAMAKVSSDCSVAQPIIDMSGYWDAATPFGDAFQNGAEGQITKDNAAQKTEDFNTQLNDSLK
ASSAY_PROCEDURE: isothermal titration calorimetry
Format: binding
TEST_CONDITIONS: read-out: EUR_01830 / Kd; 20 mM HEPES, 100 mM NaCl pH 7.0, 25 °C

[
  {
    "COMPOUND": "OC[C@H]1O[C@H](O[C@H]2[C@H](O)[C@@H](O)[C@@H](O[C@H]3[C@H](O)[C@@H](O)[C@@H](O[C@H]4[C@H](O)[C@@H](O)[C@@H](O[C@H]5[C@H](O)[C@@H](O)[C@@H](O[C@H]6[C@H](O)[C@@H](O)[C@@H](O[C@H]7[C@H](O)[C@@H](O)C(O)O[C@@H]7CO)O[C@@H]6CO)O[C@@H]5CO)O[C@@H]4CO)O[C@@H]3CO)O[C@@H]2CO)[C@H](O)[C@@H](O)[C@@H]1O (some centres unmarked)",
    "SYSTEM_TESTED": "EUR_01830 (Agathobacter rectalis, UniProt A0ABF7PGY2)",
    "READOUT_UNIT": "nM",
    "Kd": 288
  },
  {
    "COMPOUND": "OC[C@H]1O[C@H](OC[C@H]2O[C@H](O[C@H]3[C@H](O)[C@@H](O)[C@@H](O[C@H]4[C@H](O)[C@@H](O)C(O)O[C@@H]4CO)O[C@@H]3CO)[C@H](O)[C@@H](O)[C@@H]2O)[C@H](O)[C@@H](O)[C@@H]1O (some centres unmarked)",
    "SYSTEM_TESTED": "EUR_01830 (Agathobacter rectalis, UniProt A0ABF7PGY2)",
    "READOUT_UNIT": "nM",
    "Kd": 9080
  },
  {
    "COMPOUND": "OC[C@H]1O[C@H](O[C@H]2[C@H](O)[C@@H](O)[C@@H](O[C@H]3[C@H](O)[C@@H](O)[C@@H](O[C@H]4[C@H](O)[C@@H](O)C(O)O[C@@H]4CO)O[C@@H]3CO)O[C@@H]2CO)[C@H](O)[C@@H](O)[C@@H]1O (some centres unmarked)",
    "SYSTEM_TESTED": "EUR_01830 (Agathobacter rectalis, UniProt A0ABF7PGY2)",
    "READOUT_UNIT": "nM",
    "Kd": 112
  },
  {
    "COMPOUND": "OC[C@H]1O[C@H](O[C@H]2[C@H](O)[C@@H](O)[C@@H](O[C@H]3[C@H](O)[C@@H](O)[C@@H](O[C@H]4[C@H](O)[C@@H](O)[C@@H](O[C@H]5[C@H](O)[C@@H](O)[C@@H](O[C@H]6[C@H](O)[C@@H](O)C(O)O[C@@H]6CO)O[C@@H]5CO)O[C@@H]4CO)O[C@@H]3CO)O[C@@H]2CO)[C@H](O)[C@@H](O)[C@@H]1O (some centres unmarked)",
    "SYSTEM_TESTED": "EUR_01830 (Agathobacter rectalis, UniProt A0ABF7PGY2)",
    "READOUT_UNIT": "nM",
    "Kd": 160
  },
  {
    "COMPOUND": "OC[C@H]1O[C@H](O[C@H]2[C@H](O)[C@@H](O)[C@@H](O[C@H]3[C@H](O)[C@@H](O)[C@@H](O[C@H]4[C@H](O)[C@@H](O)[C@@H](O[C@H]5[C@H](O)[C@@H](O)C(O)O[C@@H]5CO)O[C@@H]4CO)O[C@@H]3CO)O[C@@H]2CO)[C@H](O)[C@@H](O)[C@@H]1O (some centres unmarked)",
    "SYSTEM_TESTED": "EUR_01830 (Agathobacter rectalis, UniProt A0ABF7PGY2)",
    "READOUT_UNIT": "nM",
    "Kd": 194
  }
]
